# Test system: Rattus norvegicus
# measurement-description: Antihyperlipidemic activity in Charles Foster rat assessed as reduction of triton WR-1339-induced plasma triglyceride level at 100 mg/kg, po after 18 hrs
# Assay type: functional
# Set-up: scale not given: the % may be the effect or the level left
Parameter threshold = 9%. Response is label 1 when Activity meets or exceeds it, else label 0.

### Prompt Decide: is the reported value of Activity for Cc1ccc(C(O)CNC(=O)Cc2cccnc2)cc1 (racemic) equal to or greater than 9%?
### Response label 1

### Prompt Determine whether this compound has Activity no lower than 9%: Cc1ccc(C(=O)CNC(=O)Cc2ccc(F)cc2)cc1
### Response label 1

### Prompt Textbook exercise: given the entry Cc1ccc(C(=O)CNC(=O)CCc2cccnc2)cc1 , state whether its Activity is greater than or equal to 9%.
### Response label 1

### Prompt Hi team, for Cc1ccc(C(O)CNC(=O)c2ccc(Cl)c([N+](=O)[O-])c2)cc1 (racemic) , is the recorded Activity at or above 9%?
### Response label 1

### Prompt Textbook exercise: given the entry COc1ccc(CC(=O)NCC(=O)c2ccc(C)cc2)cc1OC , state whether its Activity is greater than or equal to 9%.
### Response label 1

### Prompt Please indicate if the recorded Activity for Cc1ccc(C(=O)CNC(=O)/C=C/c2ccc(Cl)c(Cl)c2)cc1 meets or exceeds 9%.
### Response label 1

### Prompt Say whether Cc1ccc(C(=O)CNC(=O)/C=C/c2ccc(OS(=O)(=O)c3ccc(C)cc3)cc2)cc1 shows Activity of 9% or more.
### Response label 0

### Prompt Answer whether Activity of Cc1ccc(C(=O)CNC(=O)Cc2cccnc2)cc1 is greater than or equal to 9%.
### Response label 0

### Prompt Please indicate if the recorded Activity for COc1cc(/C=C/C(=O)NCC(=O)c2ccc(C)cc2)ccc1O meets or exceeds 9%.
### Response label 1

### Prompt Is it the case that Cc1ccc(C(O)CNC(=O)/C=C/c2ccc(Cl)c(Cl)c2)cc1 (racemic) has Activity reaching or exceeding 9%?
### Response label 1

====

Could you please report measured Activity for the items listed next?
# Tested on: Rattus norvegicus
# measurement-description: Antihyperlipidemic activity in Charles Foster rat assessed as reduction of triton WR-1339-induced plasma total cholesterol level at 100 mg/kg, po after 18 hrs
# Type: functional
# Parameters: scale not given: the % may be the effect or the level left
Answer format: numeric, % implied, no suffix.

### Prompt Dear colleague, please send me the reported Activity for Cc1ccc(C(O)CNC(=O)/C=C/c2ccc(O)cc2)cc1 (mixture of isomers) when you can.
### Response 7

### Prompt Look up and report measured Activity for this entry: Cc1ccc(C(=O)CNC(=O)Cc2cccnc2)cc1
### Response 7

### Prompt Item Cc1ccc(C(=O)CNC(=O)/C=C/c2ccc(OS(=O)(=O)c3ccc(C)cc3)cc2)cc1 : provide Activity
### Response 7

====

# System: Rattus norvegicus
# measurement-description: Antihyperlipidemic activity in Charles Foster rat assessed as reduction of triton WR-1339-induced plasma triglyceride level at 100 mg/kg, po after 18 hrs
# Type: functional
# Set-up: scale not given: the % may be the effect or the level left
observable: Activity (%)
Answer in %, number only, no unit symbol.

### Prompt Find the measured Activity of Cc1ccc(C(O)CNC(=O)/C=C/c2ccc(O)cc2)cc1 (mixture of isomers) and report it.
### Response 9

### Prompt Please report the measured Activity for Cc1ccc(C(=O)CNC(=O)/C=C/c2ccccc2O)cc1
### Response 9

### Prompt Supply reported Activity belonging to this molecule: Cc1ccc(C(=O)CNC(=O)c2ccc(Cl)c([N+](=O)[O-])c2)cc1
### Response 9

### Prompt Recall and state the measured Activity for Cc1ccc(C(O)CNC(=O)/C=C/c2ccccc2O)cc1 (mixture of isomers) .
### Response 9

Origin of measurements: ChEMBL document CHEMBL1909603
